conditions: in methanol, 319.45 K
PARAMETER MEASURED: solubility (mole fraction)

- SMILES STRING: "NC(N)=S"
  VALUE MEASURED: 0.0821

* * *

conditions: in ethanol, 309.4 K
PARAMETER MEASURED: solubility (mole fraction)

- SMILES STRING: "NC(N)=S"
  PARAMETER MEASURED: "solubility (mole fraction)"
  VALUE MEASURED: 0.0331

* * *

details: in ethanol, 314.35 K

- SMILES STRING: "NC(N)=S"
  solubility (mole fraction): 0.0375

* * *

details: in ethanol, 312.75 K

- SMILES STRING: "NC(N)=S"
  solubility (mole fraction): 0.0353

* * *

details: in ethanol, 315.55 K
PARAMETER MEASURED: solubility (mole fraction)

- SMILES STRING: "NC(N)=S"
  PARAMETER MEASURED: "solubility (mole fraction)"
  VALUE MEASURED: 0.0384

* * *

details: in ethanol, 299.45 K

- SMILES STRING: "NC(N)=S"
  solubility (mole fraction): 0.0256

* * *

details: in ethanol, 293.85 K
PARAMETER MEASURED: solubility (mole fraction)

- SMILES STRING: "NC(N)=S"
  VALUE MEASURED: 0.0227

* * *

conditions: in ethanol, 313.9 K

- SMILES STRING: "NC(N)=S"
  solubility (mole fraction): 0.0364

* * *

settings: in methanol, 301.45 K

- SMILES STRING: "NC(N)=S"
  solubility (mole fraction): 0.0565
